# Assay overview: Study 1 Part 1: ascending single-dose PK in healthy men
# Assay type: in vivo, human
# Condition info: male, human, plasma, oral, 50 mg single dose, N = 6, read-out: tmax, median
Measured attribute: Tmax (h)
Note: unit h is implicit; provide only the numeric part.

What does the record list as Tmax for "CC(C)(NC(=O)O[C@@H]1CN2CCC1CC2)c1csc(-c2ccc(F)cc2)n1" ?
4

----------
# Assay overview: Study 1 Part 1: ascending single-dose PK in healthy men
# Format: in vivo, human
# Condition info: male, human, plasma, oral, 100 mg, 100 mg single dose, N = 6, read-out: Cmax, Mean (SD)
Measured attribute: Cmax
Could you give the number and then its unit, please?

Entry "CC(C)(NC(=O)O[C@@H]1CN2CCC1CC2)c1csc(-c2ccc(F)cc2)n1" has what Cmax?
374 ng/mL

----------
# Assay overview: Study 1 Part 1: ascending single-dose PK in healthy men
# Assay type: in vivo, human
# Condition info: male, human, plasma, oral, 15 mg, 15 mg single dose, N = 6, read-out: AUClast, Mean (SD)
Measured attribute: AUC(0-t)
Units required after the number.

Name the recorded AUC(0-t) for CC(C)(NC(=O)O[C@@H]1CN2CCC1CC2)c1csc(-c2ccc(F)cc2)n1 [Compound 2] .
1830 ng·h/mL

----------
# Assay overview: Study 1 Part 1: ascending single-dose PK in healthy men
# Type: in vivo, human
# Condition info: male, human, plasma, oral, 25 mg, 25 mg single dose, N = 6, read-out: AUClast, Geometric mean (CV)
Measured attribute: AUC(0-t)
The reply should read as a number followed by its unit.

// lookup AUC(0-t) for "CC(C)(NC(=O)O[C@@H]1CN2CCC1CC2)c1csc(-c2ccc(F)cc2)n1"
3240 ng·h/mL

----------
# Assay overview: Study 2: ascending repeated-dose PK in healthy adults
# Format: in vivo, human
# Condition info: both sexes, human, plasma, oral, 20 mg, Day 14, 20 mg once daily, N = 9; read-out: t1/2, Mean (converted)
Measured attribute: half-life (h)
Answer with a number only, understood to be in h.

Entry under review: "CC(C)(NC(=O)O[C@@H]1CN2CCC1CC2)c1csc(-c2ccc(F)cc2)n1" . Reported half-life?
35

----------
# Assay overview: Study 1 Part 1: ascending single-dose PK in healthy men
# Assay type: in vivo, human
# Condition info: male, human, plasma, oral, 100 mg, 100 mg single dose, N = 6, read-out: Vss/F, Mean (SD)
Measured attribute: Vd/F (L)
Respond with the bare value in L.

Can you look up the measured Vd/F of "CC(C)(NC(=O)O[C@@H]1CN2CCC1CC2)c1csc(-c2ccc(F)cc2)n1" for me?
213

----------
# Assay overview: Study 1 Part 1: ascending single-dose PK in healthy men
# Format: in vivo, human
# Condition info: male, human, plasma, oral, 15 mg single dose, N = 6, read-out: tmax, median
Measured attribute: Tmax
Respond with the figure and its unit, in that order.

Please report the recorded Tmax for "CC(C)(NC(=O)O[C@@H]1CN2CCC1CC2)c1csc(-c2ccc(F)cc2)n1" .
3.5 h

----------
# Assay overview: Study 1 Part 1: ascending single-dose PK in healthy men
# Type: in vivo, human
# Condition info: male, human, plasma, oral, 5 mg, 5 mg single dose, N = 6, read-out: Vss/F, Geometric mean (CV)
Measured attribute: Vd/F (L)
Output spec: scalar in L, unitless text.

// lookup Vd/F for "CC(C)(NC(=O)O[C@@H]1CN2CCC1CC2)c1csc(-c2ccc(F)cc2)n1"
273
